Measured inhibition at 20 µg/mL of individual entries
Tested on: IL-6 reactive STAT3 reporter gene
Procedure details: IL-6 reactive STAT3 reporter gene test (pSTAT3-TA-Luc6 luciferase) in HepG2 cells
Format: cell-based
Protocol conditions: Homo sapiens, HepG2, 20 ug/ml of sample, HepG2 cells; read-out: Inhibition % of IL-6 reactive STAT3 reporter gene activity
Protocol: A pSTAT3-TA-Luc6 construct, which comprises 8 more STAT3 DNA binding sequence copies as compared to pSTAT-3-TA-Luc and thus, enables to better reflect STAT3 reporter gene assay, was prepared. […]
# unit: % | format: bare number

CCc1ccc(Nc2nc3cc(NC(=O)c4ccc(OC)c(OC)c4)ccc3o2)cc1 : 26.2

inhibition at 20 µg/mL recorded for this molecule, CCCCCCCc1ccc(C(=O)Nc2ccc3oc(Nc4ccc(CC)cc4)nc3c2)cc1 , is 57.2

inhibition at 20 µg/mL reported for this molecule CCc1ccc(Nc2nc3cc(NC(=O)c4cc(F)cc(C(F)(F)F)c4)ccc3o2)cc1 : 50.2

Reported inhibition at 20 µg/mL for CCc1ccc(Nc2nc3cc(NC(=O)c4ccc(Cl)cc4)ccc3o2)cc1 was 12.1

Data provenance is patent US8614240B2.
